target: Tumour suppressor p53/oncoprotein Mdm2 (Homo sapiens, UniProt Q00987); assay: Inhibition of N-terminal thioredoxin-His6 tagged HDM2 (17 to 125 residues)/p53 protein-protein interaction (unknown origin) incubated for 2 hrs by TR-FRET assay
Sequence (P04637 whole entry, the tested form may be a part): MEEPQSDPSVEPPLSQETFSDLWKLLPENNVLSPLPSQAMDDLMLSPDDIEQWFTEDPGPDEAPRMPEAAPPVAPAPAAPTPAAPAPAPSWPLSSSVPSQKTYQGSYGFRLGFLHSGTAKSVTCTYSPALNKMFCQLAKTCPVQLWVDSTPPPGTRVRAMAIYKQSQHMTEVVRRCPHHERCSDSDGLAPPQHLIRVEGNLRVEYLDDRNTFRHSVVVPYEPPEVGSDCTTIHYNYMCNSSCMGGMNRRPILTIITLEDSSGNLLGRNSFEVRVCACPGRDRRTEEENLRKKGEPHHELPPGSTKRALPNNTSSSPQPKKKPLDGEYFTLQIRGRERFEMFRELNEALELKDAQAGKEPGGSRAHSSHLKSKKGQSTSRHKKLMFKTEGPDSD
Sequence (Q00987 whole entry, the tested form may be a part): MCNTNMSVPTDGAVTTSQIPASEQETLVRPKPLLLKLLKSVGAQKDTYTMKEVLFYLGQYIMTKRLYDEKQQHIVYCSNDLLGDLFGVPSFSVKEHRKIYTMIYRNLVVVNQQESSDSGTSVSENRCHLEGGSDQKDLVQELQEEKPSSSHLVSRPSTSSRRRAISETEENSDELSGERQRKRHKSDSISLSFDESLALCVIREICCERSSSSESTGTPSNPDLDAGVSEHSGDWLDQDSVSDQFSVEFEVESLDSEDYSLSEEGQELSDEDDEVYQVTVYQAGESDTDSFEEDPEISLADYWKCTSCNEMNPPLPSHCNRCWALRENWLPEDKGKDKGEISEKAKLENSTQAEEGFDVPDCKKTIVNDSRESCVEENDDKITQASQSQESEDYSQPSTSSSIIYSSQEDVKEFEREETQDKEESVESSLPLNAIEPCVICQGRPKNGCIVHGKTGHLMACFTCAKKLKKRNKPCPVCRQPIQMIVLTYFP
ENDPOINT_LABEL: pIC50
Scale for pIC50: -log10 of concentration given in mol/L; no unit attached.

Field request: pIC50 | item: `C[C@@H](Nc1nc(-c2n[nH]c(=O)o2)nc2nc(N3CCOC[C@H]3c3ccccc3)n(C[C@H]3CC[C@H](C)CC3)c12)C1CCC1`
8.70

Field request: pIC50 | item: `C[C@@H](Nc1nc(C(=O)O)nc2nc(N3CCOC[C@H]3c3ccccc3)n(Cc3ccc(C(F)(F)F)cc3)c12)C1CCC1`
8.74

Field request: pIC50 | item: `C[C@@H](Nc1nc(C(=O)O)nc2nc(N[C@@H](CO)c3ccccc3)n(Cc3ccc(C(F)(F)F)cc3)c12)C1CCC1`
8.82

Field request: pIC50 | item: `C[C@@H](Nc1nc(-c2n[nH]c(=O)n2C)nc2nc(N3CCOC[C@H]3c3ccccc3)n(C[C@H]3CC[C@H](C)CC3)c12)C1CCC1`
7.82

Field request: pIC50 | item: `CC(C)c1ccnc(-c2nc3nc(C(=O)O)nc(N[C@H](C)C4CCC4)c3n2Cc2ccc(C(F)(F)F)cc2)c1`
8.40

Field request: pIC50 | item: `C[C@H]1CC[C@H](Cn2c(N3CCOC[C@H]3c3ccccc3)nc3cc(-c4noc(=O)[nH]4)nc(-c4cncc(Cl)c4)c32)CC1`
9.21

Field request: pIC50 | item: `CC(C)c1cccc(-c2nc3nc(C(=O)O)nc(N[C@H](C)C4CCC4)c3n2Cc2ccc(C(F)(F)F)cc2)c1`
7.82

* * *

assay: Terminal half life in rat at 1 mg/kg, po or 0.5 mg/kg, iv; format: ADME, organism-based; conditions: in vivo, read-out: beta t1/2 (converted)
ENDPOINT_LABEL: half-life (h)
Please respond with the number in h and leave the unit unwritten.

Field request: half-life | item: `C[C@H]1CC[C@H](Cn2c(N3CCO[C@@H]4CCC[C@H]43)nc3cc(-c4noc(=O)[nH]4)nc(-c4cncc(Cl)c4)c32)CC1`
3

* * *

assay: Clearance in dog plasma at 0.5 mg/kg, po or 0.25 mg/kg, iv; format: ADME, organism-based, Canis lupus familiaris
ENDPOINT_LABEL: clearance
// unit must come after the numeric part

Field request: clearance | item: `C[C@H]1CC[C@H](Cn2c(N3CCO[C@@H]4CCC[C@H]43)nc3cc(-c4noc(=O)[nH]4)nc(-c4cncc(Cl)c4)c32)CC1`
1.4 mL/min/kg

* * *

target: Tumour suppressor p53/oncoprotein Mdm2 (Homo sapiens, UniProt Q00987); test: Inhibition of HDM2/p53 interaction in human HCT-116 cells expressing p53RE/Bla incubated for 16 hrs by beta-lactamase reporter gene assay; format: cell-based
# label = YES if IC50 < 200 nM else NO

Lab log: compare recorded IC50 with 200 nM; is it strictly lower for `C[C@@H](Nc1nc(-c2n[nH]c(=O)o2)nc2nc(N3CCOC[C@H]3c3ccccc3)n(C[C@H]3CC[C@H](C)CC3)c12)C1CCC1` ?
YES

Lab log: compare recorded IC50 with 200 nM; is it strictly lower for `C[C@H]1CC[C@H](Cn2c(N3CCOC[C@H]3c3ccccc3)nc3nc(-c4noc(=O)[nH]4)nc(-c4cncc(Cl)c4)c32)CC1` ?
NO

Lab log: compare recorded IC50 with 200 nM; is it strictly lower for `C[C@H]1CC[C@H](Cn2c(N3CCOC[C@H]3c3ccccc3)nc3cc(-c4noc(=O)[nH]4)nc(-c4cncc(Cl)c4)c32)CC1` ?
YES

Lab log: compare recorded IC50 with 200 nM; is it strictly lower for `C[C@@H](Nc1nc(-c2noc(=O)[nH]2)nc2nc(N3CCOC[C@H]3c3ccccc3)n(C[C@H]3CC[C@H](C)CC3)c12)C1CCC1` ?
YES

* * *

test: Lipophilicity, logD of the compound at pH 7 by RP-HPLC analysis; assay type: physicochemical; settings: buffer
ENDPOINT_LABEL: logD
Number only, no unit.

Field request: logD | item: `CC(C)c1ccnc(-c2nc3nc(C(=O)O)nc(N[C@H](C)C4CCC4)c3n2Cc2ccc(OC(F)(F)F)c(F)c2)c1`
2.84

Field request: logD | item: COCC(c1ccccc1)c1nc2cc(-c3noc(=O)[nH]3)nc(-c3cncc(Cl)c3)c2n1C[C@H]1CC[C@H](C)CC1 (mixture of isomers)
2.62

Field request: logD | item: `C[C@H]1CC[C@H](Cn2c(N3CCOC[C@H]3c3ccccc3)nc3nc(-c4noc(=O)[nH]4)nc(-c4cccc(Cl)c4)c32)CC1`
3.15

Field request: logD | item: `C[C@@H](Nc1nc(C(=O)O)nc2nc(N[C@@H](CO)c3ccccc3)n(Cc3ccc(C(F)(F)F)cc3)c12)C1CCC1`
1.94

Field request: logD | item: `C[C@@H](Nc1nc(C(=O)O)nc2nc(-c3ccc4sccc4c3)n(Cc3ccc(Cl)cc3)c12)C1CC1`
2.2

Field request: logD | item: `C[C@H]1CC[C@H](Cn2c(N3CCOC[C@H]3c3ccccc3)nc3cc(-c4noc(=O)[nH]4)nc(-c4cncc(Cl)c4)c32)CC1`
2.69

Field request: logD | item: `C[C@@H](Nc1nc(C(=O)O)nc2nc(N3CCOC[C@H]3c3ccccc3)n(Cc3ccc(C(F)(F)F)cc3)c12)C1CCC1`
2.32

Field request: logD | item: CC(C)c1ccnc(-c2nc3nc(C(=O)O)nc(N[C@H](C)C4CCC4)c3n2C[C@H]2CC[C@H](C)CC2)c1 (mixture of isomers)
2.94

Field request: logD | item: `CC(C)c1ccnc(-c2nc3nc(C(=O)O)nc(N[C@H](C)C4CCC4)c3n2C[C@H]2CC[C@@H](C)CC2)c1`
2.7

Field request: logD | item: `C[C@H]1CC[C@H](Cn2c(N3CCC[C@H]3C(F)(F)F)nc3cc(-c4noc(=O)[nH]4)nc(-c4cncc(Cl)c4)c32)CC1`
2.85

Field request: logD | item: `CC(C)c1ccnc(-c2nc3nc(C(=O)O)nc(N[C@H](C)C4CCC4)c3n2Cc2ccc(OC(F)(F)F)cc2)c1`
2.81

Field request: logD | item: `CC(C)c1ccnc(-c2nc3nc(C(=O)O)nc(N[C@H](C)C4CCC4)c3n2Cc2ccc(C(F)(F)F)cc2)c1`
2.66

Field request: logD | item: COCC(C)c1nc2cc(-c3noc(=O)[nH]3)nc(-c3cncc(Cl)c3)c2n1C[C@H]1CC[C@H](C)CC1 (stereo partly drawn)
2.03

* * *

assay: Clearance in rhesus monkey plasma at 0.5 mg/kg, iv; assay type: ADME, organism-based, Macaca mulatta
ENDPOINT_LABEL: clearance (mL/min/kg)
Please respond with the number in mL/min/kg and leave the unit unwritten.

Field request: clearance | item: `C[C@H]1CC[C@H](Cn2c(N3CCO[C@@H]4CCC[C@H]43)nc3cc(-c4noc(=O)[nH]4)nc(-c4cncc(Cl)c4)c32)CC1`
12.4

* * *

ENDPOINT_LABEL: IC50

Param readout = IC50; param system = Cytochrome P450 2D6 (Homo sapiens, UniProt P10635); param query = `C[C@H]1CC[C@H](Cn2c(N3CCO[C@@H]4CCC[C@H]43)nc3cc(-c4noc(=O)[nH]4)nc(-c4cncc(Cl)c4)c32)CC1` ; response: value
Sequence (P10635 whole entry): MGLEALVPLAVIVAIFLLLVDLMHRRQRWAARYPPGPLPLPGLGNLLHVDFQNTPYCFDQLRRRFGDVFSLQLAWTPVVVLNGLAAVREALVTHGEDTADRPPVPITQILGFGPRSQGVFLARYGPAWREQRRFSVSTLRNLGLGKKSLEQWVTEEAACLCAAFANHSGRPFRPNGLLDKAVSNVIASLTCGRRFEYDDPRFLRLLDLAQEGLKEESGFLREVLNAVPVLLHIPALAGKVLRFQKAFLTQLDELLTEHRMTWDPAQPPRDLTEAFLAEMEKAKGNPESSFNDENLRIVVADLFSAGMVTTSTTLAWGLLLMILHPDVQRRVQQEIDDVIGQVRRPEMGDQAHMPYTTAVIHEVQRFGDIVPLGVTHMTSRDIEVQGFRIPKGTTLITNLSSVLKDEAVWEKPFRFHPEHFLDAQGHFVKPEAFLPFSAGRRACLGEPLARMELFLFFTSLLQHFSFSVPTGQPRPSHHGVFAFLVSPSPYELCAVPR
> 50 µM

* * *

assay: Plasma protein binding in rhesus monkey; assay type: ADME, cell-free, Macaca mulatta; settings: read-out: PPB (converted)
ENDPOINT_LABEL: fraction unbound

Field request: fraction unbound | item: `C[C@H]1CC[C@H](Cn2c(N3CCO[C@@H]4CCC[C@H]43)nc3cc(-c4noc(=O)[nH]4)nc(-c4cncc(Cl)c4)c32)CC1`
0.006

* * *

experiment: Oral bioavailability in rat; format: ADME, organism-based; settings: in vivo
ENDPOINT_LABEL: bioavailability (%)
Please respond with the number in % and leave the unit unwritten.

Field request: bioavailability | item: `C[C@@H](Nc1nc(-c2noc(=O)[nH]2)nc2nc(N3CCOC[C@H]3c3ccccc3)n(C[C@H]3CC[C@H](C)CC3)c12)C1CCC1`
2

* * *

assay: Terminal half life in dog at 0.5 mg/kg, po or 0.25 mg/kg, iv; type: ADME, organism-based, Canis lupus familiaris; conditions: in vivo, read-out: beta t1/2 (converted)
ENDPOINT_LABEL: half-life (h)
Please respond with the number in h and leave the unit unwritten.

Field request: half-life | item: `C[C@H]1CC[C@H](Cn2c(N3CCO[C@@H]4CCC[C@H]43)nc3cc(-c4noc(=O)[nH]4)nc(-c4cncc(Cl)c4)c32)CC1`
4.2
